Source of measurements: patent EP4786492A1

Target: monkey DLL3 on CHO-K1-cyno DLL3 cells (cynomolgus monkey)
Sequence (chain, as listed by the source limits assumed): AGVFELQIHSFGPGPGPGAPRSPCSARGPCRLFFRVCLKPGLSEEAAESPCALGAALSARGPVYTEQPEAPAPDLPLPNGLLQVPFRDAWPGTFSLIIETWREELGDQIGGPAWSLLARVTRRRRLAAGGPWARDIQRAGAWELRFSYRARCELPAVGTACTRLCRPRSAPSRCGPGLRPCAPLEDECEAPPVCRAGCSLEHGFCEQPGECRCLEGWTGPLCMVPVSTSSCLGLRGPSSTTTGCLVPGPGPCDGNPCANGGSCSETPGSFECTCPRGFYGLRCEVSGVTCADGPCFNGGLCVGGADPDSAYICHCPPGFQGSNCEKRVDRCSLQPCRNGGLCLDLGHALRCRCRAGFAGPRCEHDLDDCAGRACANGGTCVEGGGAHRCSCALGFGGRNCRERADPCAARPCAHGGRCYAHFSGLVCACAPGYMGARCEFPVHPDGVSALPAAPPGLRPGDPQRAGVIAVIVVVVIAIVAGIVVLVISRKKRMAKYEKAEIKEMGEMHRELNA
Assay: FACS, CHO-K1-cyno DLL3 cells, 100 nM antibody
Could you label it T if measured MFI is 8000 MFI or higher, and F otherwise?

## Task Say whether Hab015VL4VH1a-hFc (scFv, part only; not given: scFv linker and human IgG1 Fc, V domains shown, not shown: another chain or arm of the molecule; a dimerising Fc or GST; small tags and cut ends) VL: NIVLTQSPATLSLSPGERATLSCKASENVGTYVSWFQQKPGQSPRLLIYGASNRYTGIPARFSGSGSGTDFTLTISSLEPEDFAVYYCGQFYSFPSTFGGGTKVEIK VH: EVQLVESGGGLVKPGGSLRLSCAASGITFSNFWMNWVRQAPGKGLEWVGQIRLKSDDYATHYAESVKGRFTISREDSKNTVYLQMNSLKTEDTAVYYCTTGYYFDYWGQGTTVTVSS shows MFI of 8000 MFI or more.
## Result F

## Task Next up: Hab009VL2aVH1-hFc (scFv, part only; not given: VL-VH linker and human IgG1 Fc, V domains shown, not shown: another chain or arm of the molecule; a dimerising Fc or GST; small tags and cut ends) VL: DIVMTQSPLSLPVTPGEPASISCRASQTISDYLHWYLQKPGQSPRLLIKYASQSISGVPDRFSGSGSGTDFTLKISRVEAEDVGVYYCQQGHSFPLTFGQGTKLEIK VH: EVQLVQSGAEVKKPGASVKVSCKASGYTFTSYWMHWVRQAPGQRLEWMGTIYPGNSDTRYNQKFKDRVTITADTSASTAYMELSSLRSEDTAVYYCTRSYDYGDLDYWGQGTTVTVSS
## Result T

## Task Next up: Hab015VL4VH1b-hFc (scFv, part only; not given: VL-VH linker and human IgG1 Fc, V domains shown, not shown: another chain or arm of the molecule; a dimerising Fc or GST; small tags and cut ends) VL: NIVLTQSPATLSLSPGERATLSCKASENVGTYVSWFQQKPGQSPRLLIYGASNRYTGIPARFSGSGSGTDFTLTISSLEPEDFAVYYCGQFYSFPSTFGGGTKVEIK VH: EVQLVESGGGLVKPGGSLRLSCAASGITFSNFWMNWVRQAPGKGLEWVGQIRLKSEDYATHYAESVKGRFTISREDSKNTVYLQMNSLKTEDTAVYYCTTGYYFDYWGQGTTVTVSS
## Result F

## Task Next up: Hab008L3H5-hFc (scFv, part only; not given: scFv linker and human IgG1 Fc, V domains shown, not shown: another chain or arm of the molecule; a dimerising Fc or GST; small tags and cut ends) VL: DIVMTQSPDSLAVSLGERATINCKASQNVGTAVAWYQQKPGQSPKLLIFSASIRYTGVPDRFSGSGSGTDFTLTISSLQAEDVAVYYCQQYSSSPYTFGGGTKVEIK VH: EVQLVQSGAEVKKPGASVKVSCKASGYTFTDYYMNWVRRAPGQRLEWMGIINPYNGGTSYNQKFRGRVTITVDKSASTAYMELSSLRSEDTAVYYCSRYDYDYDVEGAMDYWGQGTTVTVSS
## Result T

## Task Next up: Hab015VL5VH5a-hFc (scFv, part only; not given: scFv linker and human IgG1 Fc, V domains shown, not shown: another chain or arm of the molecule; a dimerising Fc or GST; small tags and cut ends) VL: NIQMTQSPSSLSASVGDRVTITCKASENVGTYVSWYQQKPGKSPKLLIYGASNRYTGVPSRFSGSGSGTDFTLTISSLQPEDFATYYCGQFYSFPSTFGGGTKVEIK VH: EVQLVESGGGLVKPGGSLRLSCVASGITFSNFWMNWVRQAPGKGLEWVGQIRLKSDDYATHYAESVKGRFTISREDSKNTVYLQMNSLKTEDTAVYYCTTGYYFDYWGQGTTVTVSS
## Result F

## Task Next up: Hab015VL5VH1a-hFc (scFv, part only; not given: scFv linker and human IgG1 Fc, V domains shown, not shown: another chain or arm of the molecule; a dimerising Fc or GST; small tags and cut ends) VL: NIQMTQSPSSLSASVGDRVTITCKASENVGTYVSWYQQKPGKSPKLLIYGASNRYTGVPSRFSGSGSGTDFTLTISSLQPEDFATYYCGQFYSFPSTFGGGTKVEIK VH: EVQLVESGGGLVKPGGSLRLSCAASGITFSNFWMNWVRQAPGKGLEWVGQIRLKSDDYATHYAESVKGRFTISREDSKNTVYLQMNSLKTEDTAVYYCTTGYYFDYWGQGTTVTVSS
## Result F

## Task Next up: Hab015VL4VH5a-hFc (scFv, part only; not given: VL-VH linker and human IgG1 Fc, V domains shown, not shown: another chain or arm of the molecule; a dimerising Fc or GST; small tags and cut ends) VL: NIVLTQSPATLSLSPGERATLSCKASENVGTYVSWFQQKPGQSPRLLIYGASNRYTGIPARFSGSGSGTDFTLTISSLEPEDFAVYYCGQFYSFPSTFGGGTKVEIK VH: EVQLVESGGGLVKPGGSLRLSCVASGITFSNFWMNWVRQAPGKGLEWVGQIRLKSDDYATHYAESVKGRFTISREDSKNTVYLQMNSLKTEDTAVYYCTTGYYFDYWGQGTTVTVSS
## Result F

## Task Next up: Hab008L3H2a-hFc (scFv, part only; not given: VL-VH linker and human IgG1 Fc, V domains shown, not shown: another chain or arm of the molecule; a dimerising Fc or GST; small tags and cut ends) VL: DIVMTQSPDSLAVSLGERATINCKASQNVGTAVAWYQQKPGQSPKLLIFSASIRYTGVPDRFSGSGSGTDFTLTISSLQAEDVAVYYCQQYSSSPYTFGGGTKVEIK VH: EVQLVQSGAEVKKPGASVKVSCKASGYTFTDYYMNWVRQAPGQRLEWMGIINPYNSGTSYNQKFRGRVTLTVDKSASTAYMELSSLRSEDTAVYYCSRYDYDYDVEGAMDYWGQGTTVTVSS
## Result T

## Task Next up: Hab015VL5VH1b-hFc (scFv, part only; not given: VL-VH linker and human IgG1 Fc, V domains shown, not shown: another chain or arm of the molecule; a dimerising Fc or GST; small tags and cut ends) VL: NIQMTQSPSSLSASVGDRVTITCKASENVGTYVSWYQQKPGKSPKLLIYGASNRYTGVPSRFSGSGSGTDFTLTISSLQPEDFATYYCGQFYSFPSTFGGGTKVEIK VH: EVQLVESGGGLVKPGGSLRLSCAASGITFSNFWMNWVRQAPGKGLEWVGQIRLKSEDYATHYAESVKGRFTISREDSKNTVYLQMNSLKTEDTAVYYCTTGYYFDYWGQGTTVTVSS
## Result F

## Task Next up: Hab009VL1aVH1-hFc (scFv, part only; not given: scFv linker and human IgG1 Fc, V domains shown, not shown: another chain or arm of the molecule; a dimerising Fc or GST; small tags and cut ends) VL: DIVMTQSPLSLPVTPGEPASISCRASQTISDYLHWYLQKPGQSPQLLIKYASQSISGVPDRFSGSGSGSDFTLKISRVEAEDVGVYYCQQGHSFPLTFGQGTKLEIK VH: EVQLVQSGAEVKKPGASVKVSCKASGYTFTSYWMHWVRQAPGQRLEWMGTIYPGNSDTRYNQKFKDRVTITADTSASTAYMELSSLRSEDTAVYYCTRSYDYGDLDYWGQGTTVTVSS
## Result T
